measuredOn: T1, human IL-13 (recombinant E. coli-expressed) (human, UniProt P35225 35-146)
T1 construct: also called hIL-13
protocolDetails: ProteOn XPR36 SPR, mAb (supernatant) captured on anti-human IgG, IL13 analyte, 1:1 fit

>  <binder>
A1Y100B IleL1 (antibody, human IgG1, kappa, V domains shown, CDRH3 variant of A1L1) VH: QVQLVQSGAEVKKPGSSVKVSCKASGFYIKDTYMHWVRQAPGQGLEWMGTIDPANGNTKYVPKFQGRVTITADESTSTAYMELSSLRSEDTAVYYCARSIYDDYHIDDYYAMDYWGQGTLVTVSS VL: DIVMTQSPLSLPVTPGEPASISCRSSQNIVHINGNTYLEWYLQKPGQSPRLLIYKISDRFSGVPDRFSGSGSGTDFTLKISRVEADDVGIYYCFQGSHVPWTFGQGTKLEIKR

>  <quantityUnit>
nM

>  <Kd>
0.075

$$$$
>  <binder>
A1H100A GluL1 (antibody, human IgG1, kappa, V domains shown, CDRH3 variant of A1L1) VH: QVQLVQSGAEVKKPGSSVKVSCKASGFYIKDTYMHWVRQAPGQGLEWMGTIDPANGNTKYVPKFQGRVTITADESTSTAYMELSSLRSEDTAVYYCARSIYDDYEYDDYYAMDYWGQGTLVTVSS VL: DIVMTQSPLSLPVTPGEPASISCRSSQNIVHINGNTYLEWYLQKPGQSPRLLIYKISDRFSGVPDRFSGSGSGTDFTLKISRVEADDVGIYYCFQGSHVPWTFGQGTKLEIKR

>  <quantityUnit>
nM

>  <Kd>
0.11

$$$$
>  <binder>
A1Y100B AlaL1 (antibody, human IgG1, kappa, V domains shown, CDRH3 variant of A1L1) VH: QVQLVQSGAEVKKPGSSVKVSCKASGFYIKDTYMHWVRQAPGQGLEWMGTIDPANGNTKYVPKFQGRVTITADESTSTAYMELSSLRSEDTAVYYCARSIYDDYHADDYYAMDYWGQGTLVTVSS VL: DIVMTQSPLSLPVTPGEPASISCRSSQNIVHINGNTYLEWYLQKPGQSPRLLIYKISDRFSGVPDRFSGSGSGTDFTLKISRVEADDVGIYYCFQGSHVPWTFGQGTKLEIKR

>  <quantityUnit>
nM

>  <Kd>
0.075

$$$$
>  <binder>
A1D98GluL1 (antibody, human IgG1, kappa, V domains shown, CDRH3 variant of A1L1) VH: QVQLVQSGAEVKKPGSSVKVSCKASGFYIKDTYMHWVRQAPGQGLEWMGTIDPANGNTKYVPKFQGRVTITADESTSTAYMELSSLRSEDTAVYYCARSIYEDYHYDDYYAMDYWGQGTLVTVSS VL: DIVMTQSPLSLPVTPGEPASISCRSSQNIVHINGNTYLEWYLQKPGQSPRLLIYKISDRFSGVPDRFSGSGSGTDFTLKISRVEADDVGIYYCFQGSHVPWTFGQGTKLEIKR

>  <quantityUnit>
nM

>  <Kd>
0.873

$$$$
>  <binder>
A1I96ValL1 (antibody, human IgG1, kappa, V domains shown, CDRH3 variant of A1L1) VH: QVQLVQSGAEVKKPGSSVKVSCKASGFYIKDTYMHWVRQAPGQGLEWMGTIDPANGNTKYVPKFQGRVTITADESTSTAYMELSSLRSEDTAVYYCARSVYDDYHYDDYYAMDYWGQGTLVTVSS VL: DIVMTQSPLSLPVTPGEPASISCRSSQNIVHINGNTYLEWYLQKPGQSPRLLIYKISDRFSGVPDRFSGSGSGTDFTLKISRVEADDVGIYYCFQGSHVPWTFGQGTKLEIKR

>  <quantityUnit>
nM

>  <Kd>
0.395

$$$$
